Assign growth to each entry below.
- System: UACC-62 melanoma
- assay notes: NCI-60 one-dose screen, 48 h (100 = growth as untreated, 0 = no growth, -100 = all killed)
- applied conditions: 10 µM unless noted
- Experimental: Growth inhibition of the UACC-62 human tumor cell line is measured as a screen for anti-cancer activity. Cells are grown in 96 well plates and exposed to the test compound for 48 hours. Compounds are tested at a single concentration, which is 10^-5 M for most compounds. The reported endpoint is percent growth (GI% or GIPRCNT), where numbers from 0 - 100% represent growth inhibition, and numbers from -100% - 0 represent cell death. For example, a value of 40 represents 60% growth inhibition. […]
The panel holds about 83,000 compounds, 20% with a hit somewhere; the sample as a whole holds those more often. Active and inactive are the calls of the source. The calls were made as follows: active = growth percent below 10; inactive = the rest.

molecule ON=C(C1CCCCC1)C1CCCCC1 , growth observed: 91.8% (inactive)

molecule COC(=O)CCOc1ccccc1 , growth observed: 99% (inactive)

molecule O=C1C=CC(=O)N1Cc1ccco1 , growth observed: 86.4% (inactive)

molecule COc1cc(NCCCCCNC(C)C)c2ncccc2c1 , growth observed: 83.7% (inactive)

molecule C/C=C(/C(=O)NC(N)=O)C(C)C , growth observed: 110% (inactive)

molecule O=C1c2ccccc2CN1c1ccccc1 , growth observed: 85.9% (inactive)

molecule Nc1ccc2ccc(NS(=O)(=O)N3CCCCC3)cc2c1 , growth observed: 16.7% (inactive)

molecule CC(=O)Oc1cc(C)c(OC(C)=O)c(C)c1C , growth observed: 93.1% (inactive)

molecule O=c1[nH]c(=O)c2[nH]c(=O)[nH]c2[nH]1 , growth observed: 99.8% (inactive)

molecule O=C(O)C#Cc1ccc(Cl)cc1 , growth observed: 95.7% (inactive)

molecule Cn1c(-c2ccccc2)cc(=O)cc1-c1ccccc1 , growth observed: 81.5% (inactive)

molecule Cc1cc2ccccc2c2cc3ccccc3cc12 , growth observed: 87.8% (inactive)

molecule CN(C)C(=S)N(C)C , growth observed: 108% (inactive)

molecule CCN(C)c1ccccc1 , growth observed: 103% (inactive)

molecule CCC/C(=N/NC(N)=O)c1ccco1 , growth observed: 92.7% (inactive)

molecule Clc1ccc2sc(-c3ccccc3)nc2c1 , growth observed: 86.2% (inactive)

molecule CCN(CC)C(=S)SCCO , growth observed: 107% (inactive)

molecule CCCCCCCCCCCCCCCCC(=O)O , growth observed: 101% (inactive)

molecule COc1ccc(CCO)cc1 , growth observed: 98.5% (inactive)

molecule C=CCN1C(=O)c2ccccc2C1=O , growth observed: 90.8% (inactive)
